Target or system: PRMT5 (Homo sapiens, UniProt O14744)
Construct: purchased Viva (custom protein)
Sequence (O14744 whole entry): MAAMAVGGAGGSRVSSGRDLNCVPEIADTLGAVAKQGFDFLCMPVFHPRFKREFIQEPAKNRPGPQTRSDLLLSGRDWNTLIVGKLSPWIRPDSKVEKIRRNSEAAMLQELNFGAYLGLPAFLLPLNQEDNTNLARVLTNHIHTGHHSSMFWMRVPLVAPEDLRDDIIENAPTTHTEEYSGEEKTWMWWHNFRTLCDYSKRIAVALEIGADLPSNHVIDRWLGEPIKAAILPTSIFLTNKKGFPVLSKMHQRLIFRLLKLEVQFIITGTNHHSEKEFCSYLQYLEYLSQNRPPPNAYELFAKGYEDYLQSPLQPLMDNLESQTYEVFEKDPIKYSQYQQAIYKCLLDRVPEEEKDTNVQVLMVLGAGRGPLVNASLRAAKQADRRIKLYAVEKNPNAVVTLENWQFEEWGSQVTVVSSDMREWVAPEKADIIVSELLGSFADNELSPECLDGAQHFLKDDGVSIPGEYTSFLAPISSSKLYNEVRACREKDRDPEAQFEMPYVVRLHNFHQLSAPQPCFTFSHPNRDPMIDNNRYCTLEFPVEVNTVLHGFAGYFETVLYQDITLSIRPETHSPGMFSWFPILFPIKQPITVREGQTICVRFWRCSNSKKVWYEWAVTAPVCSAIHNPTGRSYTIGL
Sequence (Q9BQA1 whole entry partner): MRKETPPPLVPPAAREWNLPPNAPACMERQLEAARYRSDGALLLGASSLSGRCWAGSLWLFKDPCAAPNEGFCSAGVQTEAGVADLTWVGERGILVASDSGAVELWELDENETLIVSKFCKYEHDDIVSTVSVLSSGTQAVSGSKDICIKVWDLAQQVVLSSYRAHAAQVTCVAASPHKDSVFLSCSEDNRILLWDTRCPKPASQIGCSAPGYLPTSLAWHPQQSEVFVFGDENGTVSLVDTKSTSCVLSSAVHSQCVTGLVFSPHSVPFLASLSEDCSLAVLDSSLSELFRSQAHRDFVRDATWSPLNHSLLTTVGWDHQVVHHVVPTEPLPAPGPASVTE
Test name: PRMT5 biochemical IC50 assay with no cofactor
Conditions: PRMT5, no cofactor; read-out: No Cofactor/rel IC50
Measure name: IC50

Example entries and their recorded answers appear below.
# Molecule, Target or system, Result
data = [
    ("CC(=O)N1CCC(c2cccc([C@@H]3CC[C@@H](C)CN3C(=O)C(=O)Nc3cncc(C(N)=O)c3)c2)CC1 (single isomer, unassigned)", "PRMT5 (Homo sapiens, UniProt O14744)", "50 to 500 nM"),
    ("Cc1cc(NC(=O)C(=O)N2C[C@H](C)CC[C@H]2c2ccc3nn(C)cc3c2)cnc1N (racemic) [Compound 912]", "PRMT5 (Homo sapiens, UniProt O14744)", "50 to 500 nM"),
    ("Cc1cc(NC(=O)C(=O)N2C[C@H](C)CC[C@H]2c2ccc(N)cc2)cnc1N (single isomer, unassigned)", "PRMT5 (Homo sapiens, UniProt O14744)", "< 50 nM"),
    ("C[C@@H]1CC[C@@H](c2ccccc2)N(C(=O)C(=O)Nc2cncc(C(N)=O)c2)[C@H]1C (racemic) [Compound 181]", "PRMT5 (Homo sapiens, UniProt O14744)", "50 to 500 nM"),
    ("C[C@@H]1CC[C@@H](c2ccc3[nH]ncc3c2F)N(C(=O)C(=O)Nc2cncc(C(N)=O)c2)C1 (single isomer, unassigned)", "PRMT5 (Homo sapiens, UniProt O14744)", "50 to 500 nM"),
    ("CNc1ccc([C@@H]2CC[C@@H](C)CN2C(=O)C(=O)Nc2cnc(N)c(C)c2)cc1 (racemic)", "PRMT5 (Homo sapiens, UniProt O14744)", "50 to 500 nM"),
    ("Cc1cc(NC(=O)C(=O)N2C[C@@H](C)[C@@H](CC(C)C)C[C@@H]2c2ccc3scnc3c2)cnc1N (single isomer, unassigned)", "PRMT5 (Homo sapiens, UniProt O14744)", "> 500 nM"),
    ("CC(C)[C@@H]1CC[C@@H](C)CN1C(=O)C(=O)Nc1cncc(C(N)=O)c1 (racemic)", "PRMT5 (Homo sapiens, UniProt O14744)", "50 to 500 nM"),
]

Exercise: Query IC50 on PRMT5 (Homo sapiens, UniProt O14744) for C[C@@H]1CC[C@@H](c2ccc3c(c2)OCCN3)N(C(=O)C(=O)Nc2cncc(C(N)=O)c2)C1 (single isomer, unassigned)
Solution: > 500 nM

Exercise: Give IC50 (PRMT5 (Homo sapiens, UniProt O14744)) of the following molecule: CCc1cc(NC(=O)C(=O)N2C[C@@H](C)CC[C@@H]2c2ccc(N3C[C@H]4CCN(C)C[C@H]4C3)cc2)cnc1N (racemic)
Solution: < 50 nM

Values from patent US11999727B2
